This collection of values is drawn from patent US6737383B1.

A collection of compounds and their measured B. signalgrass plant response rating
tested on: surinam grass; assay: Test B pre/postemergence surinam grass; assay type: in vivo, Brachiaria decumbens; settings: Preemergence, Rate 62 g/ha; scale of 0 to 10 where 0 is no effect and 10 is complete control
Keep the answer to the number alone.

Below: 3 compounds and their reported B. signalgrass plant response rating.
C#CC(C)n1c(=O)on(C(=O)N(c2ccc(Cl)cc2)C(C)C)c1=O (racemic) [Compound 658]	0
Cc1c(-n2c(=O)on(C(=O)N(c3ccc(Cl)cc3)C(C)C)c2=O)ccc2ccccc12 [Compound 336]	0
CC(C)N(C(=O)n1oc(=O)n(C(C)C=O)c1=O)c1ccccc1 (centres unmarked) [Compound 693]	0

For record CC(C)N(C(=O)n1oc(=O)n(CCCCl)c1=O)c1ccc(Cl)cc1 [Compound 749] the listed B. signalgrass plant response rating is 0

B. signalgrass plant response rating for CC(C)N(C(=O)n1oc(=O)n(C[C@H](C)Cl)c1=O)c1ccc(Cl)cc1 [Compound 748] is 0

Quick note, B. signalgrass plant response rating for CC(C)N(C(=O)n1oc(=O)n(-c2ccc3ccccc3c2)c1=O)c1ccc(F)cc1 [Compound 329] landed at 0

B. signalgrass plant response rating in this record for CC(C)N(C(=O)n1oc(=O)n(CCC2=NOCCC2)c1=O)c1ccc(F)cc1 [Compound 656] : 0

B. signalgrass plant response rating for COC(CCl)n1c(=O)on(C(=O)N(c2ccc(Cl)cc2)C(C)C)c1=O (centres unmarked) [Compound 725] is 0

Reported B. signalgrass plant response rating of COCC(OC)n1c(=O)on(C(=O)N(c2ccccc2)C(C)C)c1=O (centres unmarked) [Compound 734] : 9

Form: compound = CC(C)N(C(=O)n1oc(=O)n(CC2CCCCO2)c1=O)c1ccc(F)cc1F (centres unmarked) [Compound 715] ; B. signalgrass plant response rating = 8

Query CC(C)N(C(=O)n1oc(=O)n(C(C)C(=S)N(C)C)c1=O)c1ccccc1 (centres unmarked) [Compound 704] yields B. signalgrass plant response rating of 2

Field B. signalgrass plant response rating (entry CC(C)N(C(=O)n1oc(=O)n(C(C)C2CCC2)c1=O)c1ccc(F)cc1 (centres unmarked) [Compound 718] ) reads 0

Value of B. signalgrass plant response rating reported for the compound CC(C)N(C(=O)n1oc(=O)n(C2CCOCC2)c1=O)c1ccc(F)cc1 [Compound 310] is 4
